Attribution: the kinase profiling compilation of Christmann-Franck et al. (2016)

Known residual activity of a selection of molecules
Molecular target: DYRK1B (human)
Assay: radiometric filter-binding kinase assay, Kinase HotSpot
Details: compound 0.5 µM; ATP 10 µM
Give the value, in units of %, as a plain number.

Worked examples, 5 molecules total:
- molecule: "Nc1ncnc2[nH]nc(Nc3ccc(F)cc3)c12"
  value_type: "residual activity"
  numeric_readout: 99.2
- molecule: "CO[C@H]1[C@@H](OC)C[C@H](C)[C@@H](OC)C2=CC(=O)C=C(NC(=O)/C(C)=C\\C=C/[C@H](OC)[C@@H](OC(N)=O)/C(C)=C\\[C@@H]1C)C2=O"
  value_type: "residual activity"
  numeric_readout: 104
- molecule: "COc1ccc2c(c[n+](C)c3c4cc5c(cc4ccc23)OCO5)c1OC"
  value_type: "residual activity"
  numeric_readout: 102
- molecule: "O=C1NC(=O)c2c1c1c3ccccc3n3c1c1c2c2ccccc2n1C1CCC3O1"
  value_type: "residual activity"
  numeric_readout: 3.15
- molecule: "c1ccc(-c2n[nH]c3c2oc2ccccc23)cc1"
  value_type: "residual activity"
  numeric_readout: 101

GET /values?readout=residual activity&item= CO[C@H]1CC2CC[C@@H](C)[C@@](O)(O2)C(=O)C(=O)N2CCCC[C@H]2C(=O)OC([C@H](C)C[C@@H]2CC[C@@H](O)[C@H](OC)C2)CC(=O)[C@H](C)/C=C(\C)[C@@H](O)[C@@H](OC)C(=O)[C@H](C)C[C@H](C)/C=C/C=C/C=C/1C (stereo partly specified)
108
